- Test system: Pseudomonas aeruginosa UI-18
- Experiment Summary: In vitro antibacterial activity, microtitration dilution method (MIC)
- Type: cell-based
- Conditions Used: UI18; Pseudomonas aeruginosa UI-18, microtitration dilution; read-out: Minimal Inhibitory Concentration MIC
Some compounds, each annotated with its measured MIC.
Recorded Metric: MIC

compound="Cc1c(F)c(N2CCC(N)C2)c(F)c2c1c(=O)c(C(=O)O)cn2C1CC1 (centres unmarked)" recorded_metric=MIC reported_value="0.4 µg/mL"
compound="Cc1c(F)c(N2CCNC(C)C2)cc2c1c(=O)c(C(=O)O)cn2-c1ccc(F)cc1F (centres unmarked) [Ex. 17a]" recorded_metric=MIC reported_value="1.6 µg/mL"
compound="Cc1c(F)c(N2CCNC(C)C2)cc2c1c(=O)c(C(=O)O)cn2C1CC1 (centres unmarked)" recorded_metric=MIC reported_value="0.8 µg/mL"
compound=Cc1c(F)c(N2CCNCC2)c(F)c2c1c(=O)c(C(=O)O)cn2-c1ccc(F)cc1F recorded_metric=MIC reported_value="0.8 µg/mL"
compound="Cc1c(F)c(N2CCC(N)C2)nc2c1c(=O)c(C(=O)O)cn2C1CC1 (centres unmarked)" recorded_metric=MIC reported_value="0.2 µg/mL"
compound="CCNCC1CCN(c2c(F)c(C)c3c(=O)c(C(=O)O)cn(C4CC4)c3c2F)C1 (centres unmarked)" recorded_metric=MIC reported_value="0.8 µg/mL"
compound=Cc1c(F)c(N2CCNCC2)cc2c1c(=O)c(C(=O)O)cn2-c1ccc(F)cc1F recorded_metric=MIC reported_value="0.8 µg/mL"
compound="Cc1c(F)c(N2CCC(N)C2)cc2c1c(=O)c(C(=O)O)cn2C1CC1 (centres unmarked)" recorded_metric=MIC reported_value="0.4 µg/mL"

====

- Tested on: Staphylococcus aureus UC-76
- Experiment Summary: In vitro antibacterial activity, microtitration dilution method (MIC)
- Assay type: cell-based
- Conditions Used: UC76; Staphylococcus aureus UC-76, microtitration dilution; read-out: Minimal Inhibitory Concentration MIC
Recorded Metric: MIC (µg/mL)

molecule="Cc1c(F)c(N2CCC(N)C2)cc2c1c(=O)c(C(=O)O)cn2-c1ccc(F)cc1F (stereo not drawn) [Ex. 17c]" reported_value=0.013
molecule="Cc1c(F)c(N2CCC(N)C2)nc2c1c(=O)c(C(=O)O)cn2C1CC1 (stereo not drawn)" reported_value=0.013
molecule="Cc1c(F)c(N2CCC(C)(CN)C2)cc2c1c(=O)c(C(=O)O)cn2C1CC1 (stereo not drawn)" reported_value=0.006

====

- Test system: Enterobacter cloacae MA 2646
- Experiment Summary: In vitro antibacterial activity, microtitration dilution method (MIC)
- Format: cell-based
- Conditions Used: MA2646; Enterobacter cloacae MA 2646, microtitration dilution; read-out: Minimal Inhibitory Concentration MIC
Recorded Metric: MIC (µg/mL)

molecule="Cc1c(F)c(N2CCC(N)C2)c(F)c2c1c(=O)c(C(=O)O)cn2-c1ccc(F)cc1F (stereo not shown)" reported_value=0.025
molecule="Cc1c(F)c(N2CCNC(C)C2)cc2c1c(=O)c(C(=O)O)cn2C1CC1 (stereo not shown)" reported_value=0.025
molecule="Cc1c(F)c(N2CC(C)NC(C)C2)cc2c1c(=O)c(C(=O)O)cn2-c1ccc(F)cc1F (stereo not shown) [Ex. 17b]" reported_value=0.4
molecule=Cc1c(F)c(N2CCNCC2)c(F)c2c1c(=O)c(C(=O)O)cn2C1CC1 reported_value=0.025
molecule="Cc1c(F)c(N2CCNC(C)C2)c(F)c2c1c(=O)c(C(=O)O)cn2C1CC1 (stereo not shown)" reported_value=0.025
molecule="CCNCC1CCN(c2c(F)c(C)c3c(=O)c(C(=O)O)cn(C4CC4)c3c2F)C1 (stereo not shown)" reported_value=0.1
molecule="Cc1c(F)c(N2CCC(C)(CN)C2)cc2c1c(=O)c(C(=O)O)cn2C1CC1 (stereo not shown)" reported_value=0.1
